Target: human aromatase (Homo sapiens)
Construct: purchased Gentest (Woburn, Mass.)
Sequence (P11511 whole entry): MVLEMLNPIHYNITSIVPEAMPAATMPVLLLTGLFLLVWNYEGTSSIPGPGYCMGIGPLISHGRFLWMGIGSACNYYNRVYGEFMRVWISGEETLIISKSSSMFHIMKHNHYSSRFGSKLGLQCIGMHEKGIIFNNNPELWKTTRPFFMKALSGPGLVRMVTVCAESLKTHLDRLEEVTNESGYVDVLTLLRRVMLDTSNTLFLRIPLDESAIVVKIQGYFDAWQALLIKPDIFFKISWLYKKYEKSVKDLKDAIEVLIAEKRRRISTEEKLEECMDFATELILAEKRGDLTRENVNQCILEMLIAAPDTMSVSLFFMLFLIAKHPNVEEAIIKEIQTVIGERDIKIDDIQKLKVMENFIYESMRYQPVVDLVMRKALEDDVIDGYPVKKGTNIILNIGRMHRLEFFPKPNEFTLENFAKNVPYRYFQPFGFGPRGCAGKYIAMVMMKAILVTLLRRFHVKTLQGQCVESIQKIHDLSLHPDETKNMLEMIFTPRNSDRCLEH
Assay: human aromatase assay (Supersomes, DBF substrate, fluorescence)
Format: biochemical
Settings: 10000 nM
Parameter: inhibition at 10 µM (%)
The reply should contain only the number, in %.

Examples from the recorded data:
| Compound | Readout units | Measured |
| --- | --- | --- |
| Cc1cc(C2CCc3cncn32)ccc1C#N (stereo not shown) | % | 95 |
| C=Cc1cc(C2CCc3cncn32)ccc1C#N (stereo not shown) | % | 100 |
| N#Cc1ccc(C2(C(=O)OCc3ccc(F)cc3)CCc3cncn32)c(Cl)c1 (single isomer, unassigned) | % | 91 |
| C=C1CC(c2ccc(C#N)cc2F)n2cncc21 (stereo not shown) | % | 95 |

Query :: // inhibition at 10 µM lookup, key: Fc1ccc(C2CCCc3cncn32)c(-c2ccsc2)c1 (stereo not shown)
Result :: 88

Query :: // inhibition at 10 µM lookup, key: N#Cc1ccc(C2CCCCc3cncn32)c(-c2cccnc2)c1 (stereo not shown)
Result :: 97

Query :: // inhibition at 10 µM lookup, key: N#Cc1ccc(C2CCCCc3cncn32)cc1Br (stereo not shown)
Result :: 100
